# TESTED TARGET: PIKFYVE (Homo sapiens, UniProt Q9Y2I7)
# Sequence (Q9Y2I7 whole entry): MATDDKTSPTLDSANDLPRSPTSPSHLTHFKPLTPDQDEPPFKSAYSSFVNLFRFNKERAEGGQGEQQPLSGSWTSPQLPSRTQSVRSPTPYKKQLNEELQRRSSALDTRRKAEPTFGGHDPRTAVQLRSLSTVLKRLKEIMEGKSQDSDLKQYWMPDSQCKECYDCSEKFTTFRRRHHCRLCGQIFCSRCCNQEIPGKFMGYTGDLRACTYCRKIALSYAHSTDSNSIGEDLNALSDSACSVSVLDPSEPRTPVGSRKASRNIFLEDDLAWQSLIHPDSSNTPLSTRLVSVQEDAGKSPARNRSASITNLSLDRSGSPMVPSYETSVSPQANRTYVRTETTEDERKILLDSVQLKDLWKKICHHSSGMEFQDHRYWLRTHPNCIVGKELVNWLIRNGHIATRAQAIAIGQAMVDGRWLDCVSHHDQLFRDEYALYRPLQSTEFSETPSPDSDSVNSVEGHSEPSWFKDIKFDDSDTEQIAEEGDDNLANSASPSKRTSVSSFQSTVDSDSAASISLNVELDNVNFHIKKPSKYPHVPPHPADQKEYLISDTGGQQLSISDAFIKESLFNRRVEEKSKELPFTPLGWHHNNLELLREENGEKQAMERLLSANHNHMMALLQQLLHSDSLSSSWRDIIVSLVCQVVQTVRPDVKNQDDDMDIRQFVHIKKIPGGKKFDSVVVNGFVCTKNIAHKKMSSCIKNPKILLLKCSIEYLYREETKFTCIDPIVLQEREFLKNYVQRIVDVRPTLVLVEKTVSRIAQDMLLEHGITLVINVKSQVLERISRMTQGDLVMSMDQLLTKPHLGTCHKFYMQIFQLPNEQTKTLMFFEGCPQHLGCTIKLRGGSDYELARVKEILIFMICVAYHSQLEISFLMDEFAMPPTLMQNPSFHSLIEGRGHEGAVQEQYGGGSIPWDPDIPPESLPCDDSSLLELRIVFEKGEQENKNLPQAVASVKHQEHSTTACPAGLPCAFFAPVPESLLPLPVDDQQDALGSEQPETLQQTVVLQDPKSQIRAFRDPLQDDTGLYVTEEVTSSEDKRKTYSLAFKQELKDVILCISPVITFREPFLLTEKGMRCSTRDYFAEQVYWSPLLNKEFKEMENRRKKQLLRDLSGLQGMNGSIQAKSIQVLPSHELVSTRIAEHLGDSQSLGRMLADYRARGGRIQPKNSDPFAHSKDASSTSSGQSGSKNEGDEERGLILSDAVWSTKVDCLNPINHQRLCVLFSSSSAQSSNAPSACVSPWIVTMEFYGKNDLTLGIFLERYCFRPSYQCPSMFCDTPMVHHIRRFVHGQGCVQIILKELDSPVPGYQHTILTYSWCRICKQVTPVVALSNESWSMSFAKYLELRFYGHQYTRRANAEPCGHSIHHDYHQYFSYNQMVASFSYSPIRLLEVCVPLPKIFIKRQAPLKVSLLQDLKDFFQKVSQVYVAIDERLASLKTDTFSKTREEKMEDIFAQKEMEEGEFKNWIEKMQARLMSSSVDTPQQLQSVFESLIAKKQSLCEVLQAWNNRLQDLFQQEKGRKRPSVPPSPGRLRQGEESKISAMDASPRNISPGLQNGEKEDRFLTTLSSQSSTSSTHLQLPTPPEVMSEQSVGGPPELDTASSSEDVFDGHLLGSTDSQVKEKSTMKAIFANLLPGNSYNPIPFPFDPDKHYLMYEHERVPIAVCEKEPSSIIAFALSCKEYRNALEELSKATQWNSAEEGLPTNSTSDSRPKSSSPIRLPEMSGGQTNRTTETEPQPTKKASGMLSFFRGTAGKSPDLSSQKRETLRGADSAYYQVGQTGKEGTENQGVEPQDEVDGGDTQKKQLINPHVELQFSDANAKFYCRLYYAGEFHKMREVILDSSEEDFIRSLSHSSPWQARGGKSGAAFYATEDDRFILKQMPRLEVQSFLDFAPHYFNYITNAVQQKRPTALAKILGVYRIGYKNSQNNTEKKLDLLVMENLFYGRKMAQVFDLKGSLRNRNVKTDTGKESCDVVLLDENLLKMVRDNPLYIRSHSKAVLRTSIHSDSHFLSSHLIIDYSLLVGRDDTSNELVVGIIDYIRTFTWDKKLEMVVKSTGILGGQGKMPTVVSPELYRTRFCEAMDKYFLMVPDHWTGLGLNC
# ASSAY SUMMARY: PIKFYVE assay (luciferase ADP-Glo kinase assay, Promega)
# Format: biochemical
# MEASUREMENT SETUP: Table 3
Reported IC50 is given for each of the following compounds.
QUANTITY NAME: IC50

- COMPOUND: "CO[C@@H](CO)c1nc(N2CCOCC2)cc(-n2ccc(-c3cn(C)c4ccccc34)n2)n1 (single isomer, unassigned)"
  TESTED TARGET: "PIKFYVE (Homo sapiens, UniProt Q9Y2I7)"
  VALUE: "3 to 10 nM"
- COMPOUND: "Cc1cccc(-c2cc(CN3CCOCC3)n(-c3cc(N4CCOCC4)nc(OCCc4cnn(C)c4)n3)n2)c1"
  TESTED TARGET: "PIKFYVE (Homo sapiens, UniProt Q9Y2I7)"
  VALUE: "< 3 nM"
- COMPOUND: "Cn1cc(CCOc2nc(N3CCOCC3)cc(-n3ccc(OCc4ccccc4F)n3)n2)cn1"
  TESTED TARGET: "PIKFYVE (Homo sapiens, UniProt Q9Y2I7)"
  VALUE: "3 to 10 nM"
- COMPOUND: "CO[C@@H](CO)c1nc(N2CCOCC2)cc(-n2nc(-c3c[nH]c4ncccc34)cc2C)n1"
  TESTED TARGET: "PIKFYVE (Homo sapiens, UniProt Q9Y2I7)"
  VALUE: "10 to 100 nM"
- COMPOUND: "Cc1cccc(-c2ccn(-c3cc(N4CCOCC4)nc(OCC4COC4)n3)n2)c1"
  TESTED TARGET: "PIKFYVE (Homo sapiens, UniProt Q9Y2I7)"
  VALUE: "3 to 10 nM"
- COMPOUND: "Cc1cccc(-c2cc([C@@H](C)O)n(-c3cc(N4CCOCC4)nc(OCCc4cnn(C)c4)n3)n2)c1 (single isomer, unassigned)"
  TESTED TARGET: "PIKFYVE (Homo sapiens, UniProt Q9Y2I7)"
  VALUE: "< 3 nM"
- COMPOUND: "Cc1cccc(-c2ccn(-c3cc(N4CCOCC4)nc(OCC(c4ccccc4)N(C)C)n3)n2)c1 (stereo not shown)"
  TESTED TARGET: "PIKFYVE (Homo sapiens, UniProt Q9Y2I7)"
  VALUE: "3 to 10 nM"
